Listed molecules paired with reported Potency
Experiment: Cell Viability - LYMP2-002 (AID 977);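 also: potency is read from the fitted curve at half-maximal effect; compound exposure lasted 24 h at 37 °C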
Details: LYMP2-002 lymphoblastoid cell viability, qHTS; series mostly up to 92.2 µM
Records with an inconclusive call do not appear. Active and inactive are the calls of the source. Calls follow the shape of the dose curve; as a rule, active = well fitted cell-killing curve with a large enough effect; inconclusive = small, poorly fitted or top-dose-only effect; inactive = flat fitted curve, though single readings scatter.
quantity-name: Potency

| structure-as-smiles | quantity-name | readout-value |
| --- | --- | --- |
| CCCCCCCCCCCC[N+](C)(C)CCOc1ccccc1 | Potency | 50.1 µM (active) |
| O=C(CCl)c1ccc(Cl)cc1Cl | Potency | 7.94 µM (active) |
| CN(C)C(=S)SSC(=S)N(C)C | Potency | 0.316 µM (active) |
| CC[n+]1c(-c2ccccc2)c2cc(N)ccc2c2ccc(N)cc21 | Potency | 15.8 µM (active) |

====

System: CP265
Experiment: qHTS profiling for inhibitors of Plasmodium falciparum proliferation (AID 504749); also: nearly all actives have a fitted effect of over 60% in size
Conditions: P. falciparum in erythrocytes, SYBR Green DNA, 72 h; series mostly up to 28.7 µM
Records with an inconclusive call do not appear. Active and inactive are the calls of the source. Calls come from the whole dose curve; as a rule, active = well fitted inhibition curve with a large enough effect; inconclusive = small, poorly fitted or top-dose-only effect; inactive = flat fitted curve, though single readings scatter.
Outcomes: active, inactive

| molecule | test-target | label-value |
| --- | --- | --- |
| COP(=O)(OC)C(O)C(Cl)(Cl)Cl (stereo unspecified) | CP265 | inactive |
| c1ccc2nc(N3CCNCC3)ccc2c1 | CP265 | inactive |
| C[C@]12Cc3nonc3C[C@@H]1CC[C@@H]1[C@@H]2CC[C@@]2(C)[C@H]1CC[C@]2(C)O | CP265 | inactive |
| CC(C)(O)C(Cl)(Cl)Cl | CP265 | active |
| ClC1=C(Cl)C2(Cl)C(CBr)CC1(Cl)C2(Cl)Cl (stereo unspecified) | CP265 | inactive |
| Cc1ccc(N=CN(C)C=Nc2ccc(C)cc2C)c(C)c1 | CP265 | inactive |

====

Experiment: qHTS for differential inhibitors of proliferation of Plasmodium falciparum line Dd2 (AID 1882); also: nearly all actives have a fitted effect of over 65% in size
Conditions: Plasmodium falciparum Dd2 proliferation inhibition; series mostly up to 28.7 µM
Results filed as inconclusive are left out. The source made the active and inactive calls. Calls come from the whole dose curve; as a rule, active = well fitted inhibition curve with a large enough effect; inconclusive = small, poorly fitted or top-dose-only effect; inactive = flat fitted curve, though single readings scatter.
Outcomes: active, inactive

| molecule | label-value |
| --- | --- |
| C[N+](C)(C)CCCCCCCCCC[N+](C)(C)C | active |
| NC(=O)CN1CCCC1=O | inactive |
| CC(N)C(=O)OC(C)(C)Cc1ccc(Cl)cc1 (configuration not stated) | active |
| COc1ccc(C(=O)N2CCCC2=O)cc1 | inactive |
| CC[C@H]1CN2CCc3cc(OC)c(OC)cc3[C@@H]2C[C@@H]1C[C@H]1NCCc2cc(OC)c(OC)cc21 | active |
| O=C(O)c1nn(Cc2ccc(Cl)cc2Cl)c2ccccc12 | inactive |
| CCCCCCCCC(=O)NCc1ccc(O)c(OC)c1 | inactive |

====

Experiment: qHTS assay for small molecule agonists of the antioxidant response element (ARE) signaling pathway (AID 651741)
Conditions: HepG2 ARE-bla reporter, beta-lactamase FRET ratio, 16 h; series mostly up to 96 µM
Inconclusive results are not listed. Active and inactive are the calls of the source. The call rests on the fitted dose curve; in most records, active means well fitted activation curve with a large enough effect in the signal ratio; inconclusive means small, poorly fitted or top-dose-only effect, or effect the other way, or a change in a side signal; inactive means flat fitted curve, though single readings scatter; the % refers to the signal ratio.
Outcomes: active, inactive

| molecule | label-value |
| --- | --- |
| CN(C)C(=S)SSC(=S)N(C)C | inactive |
| CN(C)C(=S)SC(=S)N(C)C | active |
| Oc1c(Br)cc(Br)cc1Br | active |
| NC(N)=NC(=O)c1nc(Cl)c(N)nc1N | active |
| O=C(NC(=O)c1c(F)cccc1F)Nc1cc(Cl)c(OC(F)(F)C(F)C(F)(F)F)cc1Cl (centres undefined) | active |
| Oc1ccc(Cl)cc1Sc1cc(Cl)ccc1O | active |
| CC[n+]1c(-c2ccccc2)c2cc(N)ccc2c2ccc(N)cc21 | active |
| COP(=O)(OC)C(O)C(Cl)(Cl)Cl (centres undefined) | active |
| COCC(=O)N(c1c(C)cccc1C)C(C)C(=O)OC (centres undefined) | inactive |

Data credit: PubChem BioAssay (NCATS)
